Hey, just so you know, these numbers are from patent US20110038881A1.

target: HLA-DRB1*0301 (human); assay: competition binding
pIC50: −log10 of the molar value.

binder: TQFVRFDSDAASQRM [peptide p7 (residues 31-45 of HLA-A2)]
pIC50: 6.79
